study_target: Dopamine D2 receptor (Rattus norvegicus)
Sequence (P61169 whole entry): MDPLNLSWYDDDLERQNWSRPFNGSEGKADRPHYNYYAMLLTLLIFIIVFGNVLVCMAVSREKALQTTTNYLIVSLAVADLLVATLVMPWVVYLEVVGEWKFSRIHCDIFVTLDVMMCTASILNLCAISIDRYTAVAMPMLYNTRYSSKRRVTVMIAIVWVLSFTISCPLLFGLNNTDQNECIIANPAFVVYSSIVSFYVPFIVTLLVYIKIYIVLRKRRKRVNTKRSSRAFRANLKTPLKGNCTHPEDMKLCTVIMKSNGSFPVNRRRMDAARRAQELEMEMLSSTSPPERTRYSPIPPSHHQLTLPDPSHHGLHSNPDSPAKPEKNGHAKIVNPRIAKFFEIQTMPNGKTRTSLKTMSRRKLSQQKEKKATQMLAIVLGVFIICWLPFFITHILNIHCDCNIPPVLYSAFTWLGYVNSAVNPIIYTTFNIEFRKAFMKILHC
assay_name: Dopamine D2 receptor binding test ([3H] raclopride)
test_conditions: rat striate body membrane; [3H] raclopride 1 nM; 1 hour at 25° C.
Where a name gives a salt, the structure may show the parent alone.
quantity_kind: IC50

# compound, result
records = [
    ("CCOC(=O)c1nc(-c2ccc(F)cc2)c(CCN2CCC(=Cc3cccc(F)c3)CC2)s1 [Compound A-09, hydrochloride]", "> 1000 nM"),
    ("NC(=O)c1nc(-c2ccc(F)cc2)c(CCN2CCC(=Cc3ccc(F)cc3)CC2)s1", "≥ 1000 nM"),
    ("CCOC(=O)c1nc(-c2ccc(F)cc2)c(CCN2CCC(C(=O)c3ccc(F)cc3)CC2)s1", "> 1000 nM"),
    ("O=C(O)c1nc(-c2ccc(F)cc2)c(CCN2CCC(=Cc3cccc(F)c3)CC2)s1 [Compound A-11, potassium salt]", "≥ 1000 nM"),
]

Sourced from patent US6166033A
